# Test system: NCI-H3122
# experiment: relative viability (nuclei count vs DMSO), 5 days (fraction); higher = more cells survive
# recordedConditions: first compound 0.08 µM
observable: relative viability

O=c1cc(-c2cccc3c2Sc2ccccc2S3)oc(N2CCOCC2)c1 + NC(=O)Nc1cc(-c2cccc(F)c2)sc1C(=O)N[C@H]1CCCNC1 [AZD7762] (partner 0.2 µM) = 1.02
O=c1cc(-c2cccc3c2Sc2ccccc2S3)oc(N2CCOCC2)c1 + CC1(C)CCC(c2ccc(Cl)cc2)=C(CN2CCN(c3ccc(C(=O)NS(=O)(=O)c4ccc(N[C@H](CCN5CCOCC5)CSc5ccccc5)c(S(=O)(=O)C(F)(F)F)c4)cc3)CC2)C1 [Navitoclax] (partner 0.5 µM) = 1.04
COc1nc(C)cnc1NS(=O)(=O)c1cccnc1-c1ccc(-c2nnco2)cc1 [Zibotentan] + CC(=O)c1c(C)c2cnc(Nc3ccc(N4CCNCC4)cn3)nc2n(C2CCCC2)c1=O [Palbociclib] (partner 0.5 µM) = 0.186
COc1nc(C)cnc1NS(=O)(=O)c1cccnc1-c1ccc(-c2nnco2)cc1 [Zibotentan] + COc1cc2c(Oc3ccc(NC(=O)C4(C(=O)Nc5ccc(F)cc5)CC4)cc3F)ccnc2cc1OCCCN1CCOCC1 [Foretinib] (partner 0.25 µM) = 1.02

Data credit: the supplement of paper PMC10307832
